- System: HL-60(TB) leukemia
- method description: NCI tumour cell line growth inhibition, 48 h; in the data active means GI50 below about 0.43 µM; inactive means the rest
Lab note: assign the record to one of 1 (yes) = active, 0 (no) = inactive

| structure | target or system | discrete label |
| --- | --- | --- |
| O=c1nc2n(-c3ccc(Cl)cc3)c3ccc([N+](=O)[O-])cc3cc-2c(=O)[nH]1 | HL-60(TB) leukemia | 0 (no) |

// param item: Cc1cc2nc3c4cc(N)ccc4n(CCN(C)C)c3nc2cc1C ; yields the recorded call 0 (no)

// param item: Cc1c(-c2c(-c3ccc(F)o3)sc3ncnc(O[C@H](Cc4ccccc4OCc4ccnn4CC(F)(F)F)C(=O)O)c23)ccc(OCCN2CCN(C)CC2)c1Cl ; yields the recorded call 1 (yes)

// param item: C/C(=N/Nc1nc2ccccc2n1C)c1ccccn1 ; yields the recorded call 1 (yes)

// param item: O=C1c2cc3c(cc2-c2c1c1ccc(Cl)cc1c(=O)n2CCCNCCO)OCO3 ; yields the recorded call 1 (yes)

---

- System: SK-MEL-2 melanoma
- method description: NCI tumour cell line growth inhibition, 48 h
Items are presented alongside their recorded TGI.
Write the number in µM without appending the unit.

Previously resolved entries follow.
| structure | unit abbreviation | TGI |
| --- | --- | --- |
| Nc1c(Br)cc(Br)c2c1[nH]c(=O)c1ccccc12 | µM | 60.3 |
| Cc1c(-c2c(-c3ccc(F)o3)sc3ncnc(O[C@H](Cc4ccccc4OCc4ccnn4CC(F)(F)F)C(=O)O)c23)ccc(OCCN2CCN(C)CC2)c1Cl | µM | 0.097 |

Field: next compound
Look up and state reported TGI for O=c1ccc2nc(-c3ccccc3)nn(-c3ccccn3)c-2c1 41.9

---

Items are presented alongside their recorded TGI.
- Test system: SW-620 colon
- method description: NCI tumour cell line growth inhibition, 48 h

| compound | target or system | metric | value observed |
| --- | --- | --- | --- |
| O=C1NC(=O)C2C(=O)NC(=O)C1C2(c1ccccc1)c1cc[nH]c1 (stereo not given) | SW-620 colon | TGI | > 100 µM |
| Cc1ccc(-n2c3c(c4c(CN(C)C)c(O)ccc42)CCc2ccccc2C3=O)cc1 | SW-620 colon | TGI | 33.7 µM |
| CC1(CO)OC(n2cc(C(=O)NC(=O)OCc3ccccc3)c(=O)[nH]c2=O)CC1O (stereo not given) | SW-620 colon | TGI | > 100 µM |
| CCc1c(C#N)c(S[C@@H](C(N)=O)c2ccccc2)nc(N(C)C)c1C#N | SW-620 colon | TGI | > 100 µM |

Field: next compound
Look up and state reported TGI for Nc1ncnc2c1nc(Cl)n2C1OC2COP(=O)(O)OC2C1O (stereo not given) > 300 µM

---

- Test system: HOP-62 NSCLC
- method description: NCI tumour cell line growth inhibition, 48 h
Items are presented alongside their recorded TGI.
Write the number in µM without appending the unit.

Previously resolved entries follow.
| molecule | unit abbreviation | TGI |
| --- | --- | --- |
| Cc1ccc(N=Nc2ccc(O)c(CN(C)C)c2)cc1C | µM | 52.5 |
| Nc1nc(Cl)c2ncn(Cc3ccc(CCl)cc3)c2n1 | µM | 27.3 |
| CC1(c2cccc3ccccc23)OC(=O)c2ccccc21 (stereo not drawn) | µM | 41.6 |

Field: next molecule
Look up and report measured TGI (HOP-62 NSCLC) for the following molecule: C=CC(c1ccccc1)[C@@]1(OC(C)=O)C(=O)C(=O)OC1C1COC(C)(C)O1 (stereo partly drawn) 34.2

---

Items are presented alongside their recorded TGI.
- Tested on: EKVX NSCLC
- method description: NCI tumour cell line growth inhibition, 48 h
Write the number in µM without appending the unit.

Previously resolved entries follow.
| compound | target or system | TGI [µM] |
| --- | --- | --- |
| Clc1ccc2c(c1)C1C(CO2)C(c2ccccc2)=NN1c1ccccc1 (stereo not given) | EKVX NSCLC | 68.6 |
| CCN1CCN(c2ccc(Nc3ccnc4ccc5c(nnn5C)c34)cc2)CC1 | EKVX NSCLC | 43.9 |

Look up and state reported TGI for COc1cc(/C=C2\C[C@H]3[C@@H]4CC=C5C=C(N6CCCC6)CC[C@]5(C)[C@H]4CC[C@]3(C)C2=O)cc(OC)c1OC 16.5

---

- Tested on: OVCAR-5 ovarian
- method description: NCI tumour cell line growth inhibition, 48 h
Items are presented alongside their recorded TGI.

Previously resolved entries follow.
| molecule | TGI |
| --- | --- |
| O=C(Nc1cc(Cl)cc(Cl)c1)c1ccc(NC2=C(Cl)C(=O)N(Cc3ccc(Cl)cc3Cl)C2=O)cc1 | > 100 µM |
| O=C(CN1CCN(CCCOc2c(-c3ccccc3)oc3ccccc3c2=O)CC1)Nc1ccc(Cl)cc1C(=O)c1ccccc1Cl | 90.8 µM |
| BrC1=CC=C2NC=CC3=CC=NC1C32 (stereo not drawn) | > 75.5 µM |
| Nc1c(Br)cc(Br)c2c1[nH]c(=O)c1ccccc12 | > 100 µM |
| CC(=O)O[C@H]1C(=O)[C@@]2(C)[C@H]([C@H](OC(=O)c3cccc(C(F)(F)F)c3)[C@]3(O)C[C@H](OC(=O)[C@H](O)[C@@H](NC(=O)c4ccccc4)c4ccccc4)C(C)=C1C3(C)C)[C@]1(OC(C)=O)CO[C@@H]1C[C@@H]2O | > 10.7 µM |
| O=C1CCCCCCCC/C=C\CC(c2ccco2)O1 (stereo not drawn) | > 100 µM |
| COc1cc2c3c(n(CCCN)c(=O)c2cc1OC)-c1cc2c(cc1/C3=C\CCN)OCO2 | > 26.1 µM |

Field: next molecule
Look up and state reported TGI for O=C(CNc1cccc([N+](=O)[O-])c1)Nn1c(-c2ccccc2)nc2ccccc2c1=O 3.46 µM

---

- Test system: UACC-257 melanoma
- method description: NCI tumour cell line growth inhibition, 48 h
metric: GI50

Previously resolved entries follow.
| molecule | value observed |
| --- | --- |
| O=C1CCCCCCCC/C=C\CC(c2ccco2)O1 (stereo not given) | 24200 nM |
| O=c1nc2n(-c3ccc(Cl)cc3)c3ccc([N+](=O)[O-])cc3cc-2c(=O)[nH]1 | 23400 nM |
| Cn1c(/C=C(\C#N)c2ccccc2)nc2c(N3CCOCC3)nc(Cl)nc21 | 1430 nM |

Look up and state reported GI50 for COC(=O)c1c2c(c(C)[n+]([O-])c1C)C(=O)C=C(NCc1ccc(F)c(Cl)c1)C2=O 171 nM

Look up and state reported GI50 for O=C1c2cc3c(cc2-c2c1c1ccc(Cl)cc1c(=O)n2CCCNCCO)OCO3 666 nM

---

- Tested on: IGROV1 ovarian
- method description: NCI tumour cell line growth inhibition, 48 h
Items are presented alongside their recorded TGI.

Previously resolved entries follow.
| molecule | TGI |
| --- | --- |
| C[S+](C)CCOC(=O)C(=[N+]=[N-])c1ccc([N+](=O)[O-])cc1 | > 100 µM |
| CCOP(=O)(CCCC(O)CNc1cc(Cl)nc(N)n1)OCC (stereo unspecified) | > 100 µM |

Look up and state reported TGI for O=c1ccc2nc(-c3ccccc3)nn(-c3ccccn3)c-2c1 45.4 µM

Look up and state reported TGI for COC(=O)c1ccccc1C1CN=NC12Cc1ccc(C)c(C)c1C2=O (stereo unspecified) > 100 µM

Look up and state reported TGI for CC[C@H](Nc1nc(NCc2cnc(C)cc2C)c2ncn(C(C)C)c2n1)[C@@H](C)O > 100 µM

Look up and state reported TGI for COc1ccc(-n2nnnc2-c2c[nH]c3c(F)cc(F)cc23)cc1 > 100 µM

---

- System: U251 CNS
- method description: NCI tumour cell line growth inhibition, 48 h
metric: TGI (µM)
Write the number in µM without appending the unit.

| structure | target or system | TGI, µM |
| --- | --- | --- |
| C/C(=N/Nc1nc2ccccc2n1C)c1ccccn1 | U251 CNS | 19.7 |

Field: next compound
Look up and state reported TGI for O=C(CNc1ccc2c(c1)C(=O)c1ccccc1C2=O)Nc1ccc2c(c1)C(=O)c1ccccc1C2=O 1.57

---

- Tested on: ACHN renal
- method description: NCI tumour cell line growth inhibition, 48 h; in the data active = GI50 below about 0.43 µM; inactive = the rest
Lab note: assign the record to one of TRUE (active), FALSE (inactive)

Worked examples follow.
| compound | discrete label |
| --- | --- |
| O=C1C(=O)c2ccccc2C(O)=C1CC=C(Br)Br | FALSE |
| C=C1C(=O)O[C@H]2[C@H]1CC/C(Cn1cc(-c3cc(C(F)(F)F)cc(C(F)(F)F)c3)nn1)=C\CC[C@@]1(C)O[C@@H]21 | TRUE |
| COc1cc(C)c(Cl)cc1C1=NN(c2ccc(S(N)(=O)=O)cc2)C(/C=C/c2ccccc2)C1 (stereo not given) | FALSE |
| O=C(Nc1cccc(Cl)c1)c1ccc(NC2=C(Cl)C(=O)N(Cc3ccccc3)C2=O)cc1 | FALSE |
| O=C1/C(=C/c2ccccc2)CN(C(=O)c2cccnc2)C/C1=C\c1ccccc1 | FALSE |

// param item: CCn1c(CN2CCN(Cc3ccccc3)CC2)nc2cc(NC(=O)c3cccs3)ccc21 ; yields the recorded call FALSE

// param item: O=c1nc2n(-c3ccc(Cl)cc3)c3ccc([N+](=O)[O-])cc3cc-2c(=O)[nH]1 ; yields the recorded call FALSE

// param item: O=C(c1ccco1)c1nc2cc(Cl)ccc2[n+]([O-])c1C(F)(F)F ; yields the recorded call FALSE

// param item: Nc1c(Br)cc(Br)c2c1[nH]c(=O)c1ccccc12 ; yields the recorded call FALSE

// param item: COc1ccccc1CCN=C1NC(=O)/C(=C/c2ccc3ncccc3c2)S1 ; yields the recorded call FALSE
